Every entry's value here was drawn from the Immune Epitope Database (IEDB).

- targetOrSystem: HLA-B*44:02
- procedureSummary: IEDB peptide-MHC binding, purified MHC/direct/fluorescence; filed as Kd, often an IC50 or EC50 that approximates it; bounds were set here for any values at or beyond the usual limits of such assays
- conditionSummary: source organism: Coxiella burnetii
pKd: −log10 of the molar value.
resultType: pKd

1) KGPDKLQVY; ≤ 4.70

----------
- targetOrSystem: HLA-A*11:01
- procedureSummary: IEDB peptide-MHC binding, purified MHC/competitive/radioactivity; filed as Kd, often an IC50 or EC50 that approximates it; bounds were set here for any values at or beyond the usual limits of such assays
- conditionSummary: source organism: Vaccinia virus WR
resultType: Kd (µM)

1. TILLSDKGK; 0.0812
2. GIFKNNDVR; 1.66
3. SAVFKDSFLR; 0.0459
4. YVIRHVDGK; 0.0102
5. SAFNDDGIY; 14
6. LLNSMMNRDK; 1.78
7. HLRVLFSIFY; 4.97
8. LSSIKSKSRR; 2.03
9. RIRQQLPLY; 0.553
10. LIMFEQYFIY; 0.134
11. KSTVKLVQR; 1.42
12. PISELSRLR; 5.4
13. VSIILANERY; 1.42
14. KIIAVFDSK; 0.00668
15. ESRDRKWLY; 10.3
16. ALEYLSELK; 0.178
17. NAISSRVDRY; 18
18. NSFIISTLNK; 0.000447
19. FLDKSIHLTK; 0.177
20. LSARNKLFK; 0.000532
21. MATMLEYVRY; 0.0218
22. AFDISVNASK; 1.23
23. LFIDRGSIK; 14.3
24. LMYDIINSV; 1.3
25. SIYSRPKIK; 0.00662
26. VIVVPVIDR; 0.675
27. NIADAARHY; 11.3
28. QTTVNTLSER; 0.0768
29. NFDYPFFRK; 0.191
30. CTDPSERVFK; 0.01
31. YTVEFDRDK; 18.9
32. HAFDAPTLY; 0.185
33. VMANNVKKK; 0.215
34. FFRKLVLTNK; 0.39
35. IVNNQESNKY; 1.65
36. VTISKDNLER; 0.0137
37. SAVVDNKLK; 0.508
38. DLIVTFRERY; 0.0526
39. AISKLGINY; 0.022
40. PIFSDLLKY; 6.54
41. TLSPAHLINK; 0.00129
42. VTSLAIKNYY; 0.0217

----------
- targetOrSystem: HLA-A*02:01
- procedureSummary: IEDB peptide-MHC binding, purified MHC/direct/fluorescence; filed as Kd, often an IC50 or EC50 that approximates it; bounds were set here for any values at or beyond the usual limits of such assays
- conditionSummary: source organism: Marburg virus - Musoke, Kenya, 1980
pKd: −log10 of the molar value.
resultType: pKd

1. ALKEAIEMV; 6.90

----------
Listed sequences paired with reported pKd
- targetOrSystem: HLA-A*01:01
- procedureSummary: IEDB peptide-MHC binding, purified MHC/direct/fluorescence; filed as Kd, often an IC50 or EC50 that approximates it; bounds were set here for any values at or beyond the usual limits of such assays
- conditionSummary: source organism: Escherichia coli O157:H7
pKd: −log10 of the molar value.
resultType: pKd

1. GITGGHIPK; ≤ 4.70
2. EQRLIDICV; ≤ 4.70
3. YLFQWNDNV; ≤ 4.70

----------
- targetOrSystem: HLA-A*03:01
- procedureSummary: IEDB peptide-MHC binding, purified MHC/competitive/fluorescence; filed as Kd, often an IC50 or EC50 that approximates it; bounds were set here for any values at or beyond the usual limits of such assays
- conditionSummary: source organism: Vibrio vulnificus YJ016
resultType: Kd

1) ITHPKYRKH; ≥ 20 µM

----------
- targetOrSystem: HLA-B*15:01
- procedureSummary: IEDB peptide-MHC binding, purified MHC/direct/fluorescence; filed as Kd, often an IC50 or EC50 that approximates it; bounds were set here for any values at or beyond the usual limits of such assays
- conditionSummary: source organism: Yersinia pestis CA88-4125
In this section we review reported Kd values for a set of sequences.
resultType: Kd

1. KLLARFLFE; ≥ 20 µM
2. TPFEVETRL; ≥ 20 µM

----------
- targetOrSystem: HLA-B*51:01
- procedureSummary: IEDB peptide-MHC binding, purified MHC/competitive/fluorescence; filed as Kd, often an IC50 or EC50 that approximates it; bounds were set here for any values at or beyond the usual limits of such assays
- conditionSummary: source organism: Brucella abortus S19
resultType: Kd

1. KQWIVAGAI; ≥ 20 µM

----------
- targetOrSystem: HLA-B*07:02
- procedureSummary: IEDB peptide-MHC binding, purified MHC/direct/fluorescence; filed as Kd, often an IC50 or EC50 that approximates it; bounds were set here for any values at or beyond the usual limits of such assays
- conditionSummary: source organism: Orthohantavirus andesense
resultType: Kd (µM)

1. LPSSSSYSY; 14

----------
pKd for assorted sequences
- targetOrSystem: HLA-A*29:02
- procedureSummary: IEDB peptide-MHC binding, purified MHC/competitive/radioactivity; filed as Kd, often an IC50 or EC50 that approximates it; bounds were set here for any values at or beyond the usual limits of such assays
- conditionSummary: source organism: Mammarenavirus whitewaterense
pKd: −log10 of the molar value.
resultType: pKd

1. YVNHTGFNV; 5.61
2. PYVPMPCMI; ≤ 4.22
3. SYKIGHHVEL; ≤ 4.24

----------
- targetOrSystem: HLA-B*40:02
- procedureSummary: IEDB peptide-MHC binding, purified MHC/competitive/radioactivity; filed as Kd, often an IC50 or EC50 that approximates it; bounds were set here for any values at or beyond the usual limits of such assays
- conditionSummary: source organism: SARS coronavirus Tor2
Measured log10 of Kd of individual entries
resultType: log10 of Kd (log10 of the value in nM)

1) QELGKYEQYI; 2.71
2) GEILLLEWL; 4.29
3) QELGHEDLMA; 3.41
4) SEEVVENPTI; 2.60
5) GECPKFVFPL; 0.11
6) KEFTRPLISG; 4.29
7) REIGFIVPGL; -0.39
8) IEELFYSYAT; 1.72
9) NELTLIDFYL; 2.10

----------
- targetOrSystem: HLA-B*15:09
- procedureSummary: IEDB peptide-MHC binding, purified MHC/direct/fluorescence; filed as Kd, often an IC50 or EC50 that approximates it; bounds were set here for any values at or beyond the usual limits of such assays
- conditionSummary: source organism: Francisella tularensis subsp. tularensis FSC033
resultType: Kd

1. KRINSLIKY; ≥ 20 µM

----------
- targetOrSystem: HLA-B*46:01
- procedureSummary: IEDB peptide-MHC binding, purified MHC/competitive/fluorescence; filed as Kd, often an IC50 or EC50 that approximates it; bounds were set here for any values at or beyond the usual limits of such assays
- conditionSummary: source organism: Zaire ebolavirus
Below, each entry is listed with its recorded Kd.
resultType: Kd

1) GIVSSMHYK; ≥ 20 µM
2) AENCYNLEI; ≥ 20 µM
3) DRLASTVIY; ≥ 20 µM

----------
- targetOrSystem: HLA-A*01:01
- procedureSummary: IEDB peptide-MHC binding, purified MHC/direct/fluorescence; filed as Kd, often an IC50 or EC50 that approximates it; bounds were set here for any values at or beyond the usual limits of such assays
- conditionSummary: source organism: Pseudomonas aeruginosa
resultType: Kd (nM)

1) YTFCRLNVK; 2360

----------
- targetOrSystem: HLA-B*58:01
- procedureSummary: IEDB peptide-MHC binding, purified MHC/direct/fluorescence; filed as Kd, often an IC50 or EC50 that approximates it; bounds were set here for any values at or beyond the usual limits of such assays
- conditionSummary: source organism: Vibrio vulnificus
resultType: Kd

1. IQTHCEVGY; ≥ 20 µM

----------
- targetOrSystem: HLA-B*40:01
- procedureSummary: IEDB peptide-MHC binding, purified MHC/direct/fluorescence; filed as Kd, often an IC50 or EC50 that approximates it; bounds were set here for any values at or beyond the usual limits of such assays
- conditionSummary: source organism: Giardia lamblia ATCC 50803
The sequences listed here are annotated with their Kd.
resultType: Kd

1) LLPYPIAGC; ≥ 20 µM
2) RIGGVLIFR; ≥ 20 µM

----------
- targetOrSystem: HLA-A*30:01
- procedureSummary: IEDB peptide-MHC binding, purified MHC/competitive/fluorescence; filed as Kd, often an IC50 or EC50 that approximates it; bounds were set here for any values at or beyond the usual limits of such assays
- conditionSummary: source organism: Bacillus anthracis str. A0488
pKd: −log10 of the molar value.
resultType: pKd

1) FVMPIFEQI; ≤ 5.30
